Quick list: τB (intrinsic efficacy of the modulator) per entry.
# assayed_target: hM1 mAChR (Homo sapiens, UniProt P11229)
# Construct: expressed in transfected cells
# procedure_summary: IP1 accumulation assay (ACh concentration-response curves in absence or presence of modulator)
# Format: cell-based
# test_conditions: IP1 accumulation; antilog, in parentheses
Please reply with the value in numeric form only.

In [3]: df
Out[3]:
                                   molecule  reported_measurement
0  Cn1cc(-c2ccc(COc3ccsc3-c3ccn(C4CCCCC4O)c(=O)c3)cc2)cn1 (centres unmarked) [Compound 7h]                     6
1  Cn1cc(-c2ccc(COc3ccccc3-c3ccn(C4CCCCC4O)c(=O)c3)cc2)cn1 (centres unmarked) [Compound 1]                     4
2  Cn1cc(-c2ccc(COc3ccccc3-c3ccn(C4CCCCC4=O)c(=O)c3)cc2)cn1 (centres unmarked) [Compound 13d]                     1

**Query** # return recorded τB (intrinsic efficacy of the modulator) for input Cn1cc(-c2ccc(COc3ncccc3-c3ccn(C4CCCCC4O)c(=O)c3)cc2)cn1 (centres unmarked) [Compound 7f]
**Result** 4

**Query** Look up and report measured τB (intrinsic efficacy of the modulator) for this entry: O=c1cc(-c2ccccc2OCc2ccc(-n3cccn3)nc2)ncn1C1CCCCC1O (centres unmarked) [Compound 27b]
**Result** 3

====

# assayed_target: M1 mAChR (Homo sapiens, UniProt P11229)
# Construct: expressed in transfected cells; host or cells: parental FlpIn CHO cells (transient, PEI)
# Sequence (P11229 1-460): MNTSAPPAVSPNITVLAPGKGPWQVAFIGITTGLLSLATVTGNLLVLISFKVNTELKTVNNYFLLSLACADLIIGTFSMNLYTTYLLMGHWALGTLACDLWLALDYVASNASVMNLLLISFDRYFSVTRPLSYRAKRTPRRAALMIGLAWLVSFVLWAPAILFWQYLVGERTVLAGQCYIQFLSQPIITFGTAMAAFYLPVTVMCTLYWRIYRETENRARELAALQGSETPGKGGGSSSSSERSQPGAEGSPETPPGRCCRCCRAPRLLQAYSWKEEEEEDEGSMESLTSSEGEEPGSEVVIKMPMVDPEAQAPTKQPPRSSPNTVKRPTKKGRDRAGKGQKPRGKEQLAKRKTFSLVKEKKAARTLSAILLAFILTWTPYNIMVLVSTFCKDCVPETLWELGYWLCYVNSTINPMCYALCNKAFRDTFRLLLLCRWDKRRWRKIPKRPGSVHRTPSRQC
# procedure_summary: β-arrestin 2 recruitment assay (BRET)
# Assay type: cell-based
# test_conditions: antilog, in parentheses
experimental_endpoint: αβ (functional cooperativity with ACh)

Answered cases to consult:
>>> print(df.to_string())
                                   compound  reported_measurement
0  Cn1cc(-c2ccc(COc3ccsc3-c3ccn(C4CCCCC4O)c(=O)c3)cc2)cn1 (centres unmarked)                   955
1  Cn1cc(-c2ccc(COc3ccccc3-c3ccn(C4CCCCC4=O)c(=O)c3)cc2)cn1 (centres unmarked) [Compound 13d]                    14
2  CN(C)C(=O)Cn1ccc(-c2ccccc2OCc2ccc(-c3cnn(C)c3)cc2)cc1=O [Compound 13c]                    55
3  Cn1cc(-c2ccc(COc3ncccc3-c3cc(=O)n(C4CCCCC4O)cn3)cc2)cn1 (centres unmarked) [Compound 26a]                    95

Okay, next one:
**Query** Complete the entry with αβ (functional cooperativity with ACh) for Cn1cc(-c2ccc(COc3ncccc3-c3ccn(C4CCCCC4O)c(=O)c3)cc2)cn1 (centres unmarked)
**Result** 81
